This collection of values is drawn from patent US7015196B1.

Target: human NK2 receptor (Homo sapiens, UniProt P21452)
Sequence (P21452 whole entry): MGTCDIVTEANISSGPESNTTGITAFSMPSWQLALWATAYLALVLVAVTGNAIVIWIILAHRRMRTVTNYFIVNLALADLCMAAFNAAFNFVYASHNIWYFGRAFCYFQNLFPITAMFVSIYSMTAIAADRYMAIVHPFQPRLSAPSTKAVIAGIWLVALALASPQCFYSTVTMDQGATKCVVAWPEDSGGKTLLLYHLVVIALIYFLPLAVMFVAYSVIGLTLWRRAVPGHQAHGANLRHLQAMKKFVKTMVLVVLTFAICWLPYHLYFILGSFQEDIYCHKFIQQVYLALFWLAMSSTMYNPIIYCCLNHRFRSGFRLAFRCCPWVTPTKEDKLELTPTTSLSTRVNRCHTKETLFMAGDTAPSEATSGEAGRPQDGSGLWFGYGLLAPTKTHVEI
Reported metric: Ki (nM)
Form entry: value (nM) — number only.

Record O=C1CC(C(=O)N2CCC(N3CCCCC3)CC2)C(=O)NCC(Cc2ccccc2)NC(=O)C(Cc2ccccc2)NC(=O)C(Cc2c[nH]c3ccccc23)N1 (single isomer, unassigned) [Example 7] , field Ki: 0.0501
